Cited source: PubChem BioAssay AID248

We begin with a simple list: items and their reported T/C.
# Tested on: L1210 leukemia ip in BDF1 mice, survival T/C
# assayOverview: NCI In Vivo Anticancer Drug Screen. Data for tumor model L1210 Leukemia (intraperitoneal) in B6D2F1 (BDF1) mice
# studyConditions: endpoint: mean survival time; dose: 100.0 mg/kg/injection; schedule: Q01DX001 (ip); vehicle: saline; higher = longer survival
# Method: The antitumor activity of compounds was measured in mice bearing transplantable tumors. Survival or tumor size were measured and the results are expressed as the measurement made in the treated group (T) divided by the measurement made in the vehicle treated control group (C). The tumor model used in this assay is L1210 Leukemia (intraperitoneal) in B6D2F1 (BDF1) mice
Inconclusive results and toxic doses are left out.

>  <compound>
COc1ccc(C2(C)C(C#N)C(=O)NC(=O)C2C#N)cc1 (stereo not given)

>  <T/C>
98 % of control

$$$$
>  <compound>
CC1([N+](=O)[O-])COP(=O)(Nc2ccccc2)OC1 (stereo not given)

>  <T/C>
98 % of control

$$$$
>  <compound>
Clc1cc(/C=C/c2ccccc2)c2ccccc2n1

>  <T/C>
105 % of control

$$$$
>  <compound>
NC(=O)C(=O)NO

>  <T/C>
97 % of control

$$$$
>  <compound>
O=C(CCCC(=O)N/N=C/c1cc(Br)ccc1O)N/N=C\c1cc(Br)ccc1O

>  <T/C>
98 % of control

$$$$
>  <compound>
C[C@@H]1C[C@@H]([C@H](O)CC2CC(=O)NC(=O)C2)C(=O)[C@@H](C)C1

>  <T/C>
114 % of control

$$$$
>  <compound>
CC1=NN(c2ccccc2)C(=O)C1

>  <T/C>
94 % of control

$$$$
>  <compound>
Cc1cc(C)c(CCN(C)C)c(C)c1C

>  <T/C>
101 % of control

$$$$
>  <compound>
CC1=CCC(=C(C)C)C1C(=O)NC1CCCCC1 (stereo not given)

>  <T/C>
97 % of control

$$$$
>  <compound>
CCOC(OCC)c1nc(N)nc(N)c1-c1ccc(Cl)c(Cl)c1

>  <T/C>
100 % of control

$$$$
>  <compound>
CSC(N)=Nc1c(C)cccc1C

>  <T/C>
98 % of control

$$$$
>  <compound>
Cc1cc(-c2ccccc2)c2c(C#N)cn(-c3cccc(Cl)c3)c2n1

>  <T/C>
87 % of control

$$$$
>  <compound>
COC(=O)C12CCC1(Cl)CC2 (stereo not given)

>  <T/C>
94 % of control

$$$$
>  <compound>
COc1cc2c(cc1OCc1ccccc1)C(c1cc(OC)c(OC)c(OC)c1)=C1C(=O)OCC1C2 (stereo not given)

>  <T/C>
98 % of control

$$$$
>  <compound>
O=C(O)C1CCCC2C(O)CCC(O)C12 (stereo not given)

>  <T/C>
107 % of control

$$$$
>  <compound>
COC(=O)C1(C)COP(=O)(Nc2ccc(OC)cc2)OC1 (stereo not given)

>  <T/C>
89 % of control

$$$$
>  <compound>
NCCCc1c(-c2ccccc2)nc(N)[nH]c1=O

>  <T/C>
110 % of control

$$$$
>  <compound>
[N-]=[N+]=Nc1ccc(S(N)(=O)=O)cc1

>  <T/C>
99 % of control

$$$$
>  <compound>
COC(=O)C1C2CC3C(OC(=O)C31C)C2I (stereo not given)

>  <T/C>
90 % of control

$$$$
>  <compound>
COC(CN)C(Cl)(Cl)Cl (stereo not given)

>  <T/C>
98 % of control

$$$$
>  <compound>
CC(=O)NC1C(O)CC(O)(C(=O)O)OC1C(O)C(O)CO (stereo not given)

>  <T/C>
98 % of control

$$$$
>  <compound>
NC(=S)N/N=C/c1ccc2ccccc2c1

>  <T/C>
107 % of control

$$$$
>  <compound>
CCOP(=S)(NN=C1CCCCC1)OCC

>  <T/C>
104 % of control

$$$$
>  <compound>
CCN(CC)C(=O)Nc1ccc(O)c(C(=O)O)c1

>  <T/C>
98 % of control

$$$$
>  <compound>
CC(=O)OCC(OC(C)=O)C(OC(C)=O)C(OC(C)=O)C(C#N)OC(C)=O (stereo not given)

>  <T/C>
103 % of control

$$$$
>  <compound>
COc1ccc(C(=O)C(C)CN2CCCCC2)cc1 (stereo not given)

>  <T/C>
96 % of control

$$$$
>  <compound>
COC1OCCCC1OC(=O)c1ccccc1 (stereo not given)

>  <T/C>
103 % of control

$$$$
>  <compound>
CCC1=C(C)C(C)OC(C)=C1C (stereo not given) (tested in a mixture with another compound)

>  <T/C>
93 % of control

$$$$
>  <compound>
CC(=O)N(C)c1cc([N+](=O)[O-])ccc1OCc1ccccc1

>  <T/C>
96 % of control

$$$$
>  <compound>
COc1ccc(C(=S)N2CCN(c3ccc(Cl)cc3)CC2)cc1

>  <T/C>
95 % of control

$$$$
>  <compound>
CCOc1ccc(C=C(C#N)C#N)cc1OCC

>  <T/C>
105 % of control

$$$$
>  <compound>
COc1cc(/C=C2/N=C(C)OC2=O)cc(Cl)c1OC

>  <T/C>
87 % of control

$$$$
>  <compound>
c1ccc2c(c1)C[N+](=C1CCCCC1)C2

>  <T/C>
93 % of control

$$$$
>  <compound>
COC1CCC(OC)(C(=O)NN)O1 (stereo not given)

>  <T/C>
95 % of control

$$$$
>  <compound>
NNC(=O)CC(=O)NN

>  <T/C>
106 % of control

$$$$
